# assayed_target: CaSho1
# protocol: SPOT peptide array binding signal intensity (averaged, normalized) (arbitrary units (background-subtracted, floor 0; scale differs between SH3 domains)); higher = stronger binding of the SH3 domain to the peptide
experimental_readout: SPOT peptide array binding signal intensity
Just the number, please.

Here is how some binders turned out for SPOT peptide array binding signal intensity.
INSERT INTO measurements (binder, numeric_result) VALUES
  ('KRNRLKILLPFLEQS', 1220),
  ('STPQTMRQAPKRPDA', 100);

We next turn to a different binder, shown below.
Asked: Could you share which SPOT peptide array binding signal intensity value was measured for RKQRSIPLSPIVPES ?
Given back: 83
